Data provenance is ChEMBL document CHEMBL1132445.

// reported Inhibition for each item listed
- System: Trypanosoma cruzi
- assay_comment: Inhibition of Trypanosoma cruzi Amastigotes growth at the specified concentrations: 3.13 uM
- Type: functional
Give your result in % as a bare value.

CCCCCCOc1cccc(Cc2cnc(N)nc2N)c1; 100

`CCCCCCCCCCOc1cccc(Cc2cnc(N)nc2N)c1` yielded Inhibition of 99

get_value(item= `CCCCOc1cccc(Cc2cnc(N)nc2N)c1` , readout=Inhibition) returns 65
